Every entry's value here was drawn from paper PMC6441019.

- SYSTEM: S33E/S37A β-catenin peptide binding to β-TrCP (Homo sapiens, UniProt P35222+Q9Y297, S33E/S37A)
- Construct: titrating BODIPY-FL-labeled β-catenin peptides (residues 17-48) against 300 pM β-TrCP; 6xHis-SMT3 (N, cleaved yes)
- Sequence (Q9Y297 1-569 isoform Q9Y297-2, stated change not applied): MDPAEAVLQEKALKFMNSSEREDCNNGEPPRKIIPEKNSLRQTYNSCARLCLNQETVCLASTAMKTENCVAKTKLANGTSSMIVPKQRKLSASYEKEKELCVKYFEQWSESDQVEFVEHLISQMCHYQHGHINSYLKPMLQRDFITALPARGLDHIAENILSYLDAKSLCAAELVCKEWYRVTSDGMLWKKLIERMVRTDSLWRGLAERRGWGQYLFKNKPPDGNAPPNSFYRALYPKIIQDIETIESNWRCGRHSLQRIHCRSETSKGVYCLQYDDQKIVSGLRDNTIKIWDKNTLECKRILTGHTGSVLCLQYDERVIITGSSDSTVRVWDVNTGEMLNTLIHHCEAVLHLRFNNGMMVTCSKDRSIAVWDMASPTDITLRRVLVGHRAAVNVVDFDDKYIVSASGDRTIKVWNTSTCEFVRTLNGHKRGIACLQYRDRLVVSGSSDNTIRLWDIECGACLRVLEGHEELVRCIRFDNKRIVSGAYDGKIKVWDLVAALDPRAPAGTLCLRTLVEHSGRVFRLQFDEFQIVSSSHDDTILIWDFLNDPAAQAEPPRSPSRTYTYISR
- Sequence (P63208 whole entry partner, the tested form may be a part): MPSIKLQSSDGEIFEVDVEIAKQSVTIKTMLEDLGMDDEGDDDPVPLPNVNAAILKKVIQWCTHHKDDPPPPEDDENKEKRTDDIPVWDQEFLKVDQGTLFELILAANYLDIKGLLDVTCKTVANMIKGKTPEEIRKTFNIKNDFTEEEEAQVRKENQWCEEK
- Sequence (P35222 17-48 S33E/S37A limits assumed): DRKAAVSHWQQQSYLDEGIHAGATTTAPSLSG
- TEST_SUMMARY: TR-FRET peptide binding assay, S33E/S37A peptide
- EXPERIMENTAL_CONTEXT: read-out: binding affinity of S33E/S37A peptide
- Experimental: Compounds were incubated in a 20 μl reaction volume with 300 pM biotinylated β-TrCP/Skp1 preincubated with 1.2 nM terbium-coupled streptavidin (Cisbio) and BODIPY-FL labeled β-catenin peptides (see figure legends for peptide details) in a white 384-well microplate (Perkin Elmer ProxiPlate), using a PBS buffer containing 0.01% Triton X-100 and 2 mM DTT with 2% final DMSO. […] TR-FRET signal was calculated using a 520/620 nm ratio. […]
QUANTITY_MEASURED: Kd (nM)

A. O=C(O)c1cccc(NC(=O)c2c(Sc3c(Cl)cccc3Cl)cc(C(F)(F)F)[nH]c2=O)c1
B. N#Cc1cccc2c1CN(C(=O)c1c(Sc3c(Cl)cccc3Cl)cc(C(F)(F)F)[nH]c1=O)C2
Request: So which one has the bigger Kd here, A or B ? Response format: the label of the selected entry.
Response: A
(A: 22 nM, B: 6 nM)
